TESTED_ON: His-tagged HMGB1 (UniProt P09429)
Sequence: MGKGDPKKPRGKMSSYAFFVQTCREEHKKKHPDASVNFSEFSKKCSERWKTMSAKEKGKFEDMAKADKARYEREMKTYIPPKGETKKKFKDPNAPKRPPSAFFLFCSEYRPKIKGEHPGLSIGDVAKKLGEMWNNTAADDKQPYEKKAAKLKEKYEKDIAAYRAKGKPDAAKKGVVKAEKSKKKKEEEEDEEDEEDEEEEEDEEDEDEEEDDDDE
MEASUREMENT_PROTOCOL: SPR
MEASUREMENT_CONTEXT: comparative pool; no signal increase in FIG. 1; unit M inferred
pKd: −log10 of the molar value.

CHAIN_SEQUENCE: GGGACGCUCACGUACGCUCANNNNNNNNNNNNNNNNNNNNNNNNNNNNNNNNNNNNNNNNUCAGUGCCUGGACGUGCAGU [40N random RNA pool]
pKd: 5.98
